Measured values drawn from patent US10603322B2 for this set.

system: breast cancer cell types overexpressing CK1δ; assay: Cell proliferation assay (Cell-Titer Glo, 72 hr); assay type: cell-based; settings: Homo sapiens
quantityMeasured: EC50

Input: GET /values?readout=EC50&item= Fc1cccc(-n2cnc3c(NCc4nc5ccc(F)c(F)c5[nH]4)nc(N4CCOCC4)nc32)c1 [SR-3029]
Output: 5 to 70 nM
